I'd be grateful if you could share measured response vs control in vivo at 80 mg/kg for these entries.
System: KK-Ay mouse
Test: 7-day subcutaneous administration to KK-Ay mouse: body weight, food intake, blood glucose and insulin
Type: in vivo
Conditions: sc, 192 h; 80 mg/kg s.c. for 7 days, male KK-Ay mouse, insulin in blood on eighth day; average, percent to value of control group; read-out: Insulin
Express your answer in %, writing the number without its unit.

Which response vs control in vivo at 80 mg/kg value is on record for `Fc1cccc(F)c1OCCCN1CC=CCC1` ?
54

Which response vs control in vivo at 80 mg/kg value is on record for `Clc1ccc(OCCCN2CC=CCC2)c(Cl)c1Cl` ?
51

Which response vs control in vivo at 80 mg/kg value is on record for `Clc1ccc(OCCCCN2CC=CCC2)cc1Cl` ?
31

Where these numbers come from: patent US6649623B1
